# target: Epidermal growth factor receptor (Homo sapiens) (UniProt P00533)
# Sequence (P00533 whole entry): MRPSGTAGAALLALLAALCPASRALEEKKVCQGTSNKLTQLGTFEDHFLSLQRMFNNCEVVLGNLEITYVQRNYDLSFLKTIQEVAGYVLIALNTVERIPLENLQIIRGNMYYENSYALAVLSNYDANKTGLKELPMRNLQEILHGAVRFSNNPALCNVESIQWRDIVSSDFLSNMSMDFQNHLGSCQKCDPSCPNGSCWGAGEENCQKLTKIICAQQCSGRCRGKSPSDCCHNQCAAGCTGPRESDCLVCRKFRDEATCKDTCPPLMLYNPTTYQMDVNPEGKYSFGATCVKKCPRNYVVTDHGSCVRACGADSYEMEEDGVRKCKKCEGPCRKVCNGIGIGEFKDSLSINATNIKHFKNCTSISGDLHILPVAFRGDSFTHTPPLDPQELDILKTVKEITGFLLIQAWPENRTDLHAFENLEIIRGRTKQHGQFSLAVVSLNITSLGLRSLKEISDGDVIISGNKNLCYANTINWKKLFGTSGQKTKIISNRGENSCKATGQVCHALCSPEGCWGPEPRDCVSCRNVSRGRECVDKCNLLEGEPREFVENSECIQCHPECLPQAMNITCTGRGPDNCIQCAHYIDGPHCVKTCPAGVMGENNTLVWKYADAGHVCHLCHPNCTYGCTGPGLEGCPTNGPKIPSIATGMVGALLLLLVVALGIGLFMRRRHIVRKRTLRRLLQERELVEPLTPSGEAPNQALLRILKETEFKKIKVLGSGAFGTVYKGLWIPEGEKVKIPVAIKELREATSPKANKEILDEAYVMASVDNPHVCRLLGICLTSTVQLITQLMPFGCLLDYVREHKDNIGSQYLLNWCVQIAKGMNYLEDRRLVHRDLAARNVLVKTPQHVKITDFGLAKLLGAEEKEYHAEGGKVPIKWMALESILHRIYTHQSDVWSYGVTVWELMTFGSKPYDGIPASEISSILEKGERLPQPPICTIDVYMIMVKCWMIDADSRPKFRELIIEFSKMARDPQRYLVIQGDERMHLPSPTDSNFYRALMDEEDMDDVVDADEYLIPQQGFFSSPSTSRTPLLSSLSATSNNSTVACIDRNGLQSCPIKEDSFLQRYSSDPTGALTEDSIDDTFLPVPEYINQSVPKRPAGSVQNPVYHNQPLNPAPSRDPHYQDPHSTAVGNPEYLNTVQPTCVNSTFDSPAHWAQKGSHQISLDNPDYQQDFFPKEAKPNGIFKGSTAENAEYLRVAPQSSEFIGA
# assay-remarks: Inhibition of human EGFR assessed as remaining enzyme activity at 10 uM; values are per cent of control
readout-type: residual activity (%)
Numeric answer only, unit % assumed.

CCCCCc1nc2c(-c3ccc(Cl)cc3)n[nH]c2c(=O)n1NC(=O)c1ccccc1 76

input: Name the reported residual activity value associated with the compound CCCCc1nc2c(-c3ccc(Cl)cc3)n[nH]c2c(=O)n1NC(=O)c1ccccc1
output: 86

---

# target: Glycogen synthase kinase-3 beta (Homo sapiens)
# assay-remarks: Inhibition of human GSK3-beta assessed as remaining enzyme activity at 10 uM; values are per cent of control
readout-type: residual activity (%)
Numeric answer only, unit % assumed.

Take a look at these entries with their results.
CCCCCc1nc2c(-c3ccc(Cl)cc3)n[nH]c2c(=O)n1NC(=O)c1ccccc1 8
CCCCc1nc2c(-c3ccc(Cl)cc3)n[nH]c2c(=O)n1NC(=O)c1ccccc1 11
CCCCCc1nc2c(-c3ccc(Cl)cc3)n[nH]c2c(=O)n1NC(=O)c1cccc(C)c1 6

input: Name the reported residual activity value associated with the molecule O=C(Cc1ccccc1)Nn1c(CC2CCCCC2)nc2c(-c3ccc(Cl)cc3)n[nH]c2c1=O
output: 11

input: Next: Cc1cccc(C(=O)Nn2c(CC3CCCCC3)nc3c(-c4ccc(Cl)cc4)n[nH]c3c2=O)c1
output: 11

---

# Test system: DU-145
# assay-remarks: Cytotoxicity against human DU145 cells at 100 uM after 2 days by sulforhodamine B assay
# Assay type: functional
# condition-details: DU-145, 48 h
Would you please tag the item rule met when its inhibition at 100 µM is 90% or above, and rule not met when it is below?

The examples below pair each entry with its known result.
molecule	discrete-label
O=C(Nn1c(-c2cccc([N+](=O)[O-])c2)nc2c(-c3ccco3)n[nH]c2c1=O)c1cccnc1	rule not met
O=C(Nn1c(CCc2ccccc2)nc2c(-c3ccc(Cl)cc3)n[nH]c2c1=O)c1ccccc1	rule not met

input: Test whether the molecule COc1cccc(-c2nc3c(-c4ccco4)n[nH]c3c(=O)n2NC(=O)c2ccccc2)c1 records inhibition at 100 µM of 90% or higher.
output: rule not met

input: Next: COc1cccc(-c2nc3c(-c4ccc(Cl)cc4)n[nH]c3c(=O)n2NC(=O)c2ccncc2)c1
output: rule not met

---

This listing pairs compounds with measured inhibition.
# target: Glycogen synthase kinase-3 beta (Homo sapiens) (UniProt P49841)
# Sequence (P49841 whole entry, looked up): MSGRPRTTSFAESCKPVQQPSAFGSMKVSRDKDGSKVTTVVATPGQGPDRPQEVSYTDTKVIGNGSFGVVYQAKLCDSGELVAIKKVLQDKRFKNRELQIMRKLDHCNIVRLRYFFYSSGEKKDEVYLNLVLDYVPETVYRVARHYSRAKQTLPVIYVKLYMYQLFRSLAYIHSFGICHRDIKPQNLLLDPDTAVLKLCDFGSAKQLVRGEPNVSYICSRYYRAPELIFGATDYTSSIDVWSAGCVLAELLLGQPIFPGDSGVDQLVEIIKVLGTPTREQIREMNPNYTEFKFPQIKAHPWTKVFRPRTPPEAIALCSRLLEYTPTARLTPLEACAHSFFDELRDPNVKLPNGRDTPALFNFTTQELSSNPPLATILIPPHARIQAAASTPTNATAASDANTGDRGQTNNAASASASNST
# assay-remarks: Inhibition of human GSK3-beta at 10 uM
Numeric answer only, unit % assumed.

CCCCCc1nc2c(-c3ccc(Cl)cc3)n[nH]c2c(=O)n1NC(=O)c1ccccc1 92

input: Name the reported inhibition value associated with the compound O=C(Cc1ccccc1)Nn1c(CC2CCCCC2)nc2c(-c3ccc(Cl)cc3)n[nH]c2c1=O
output: 89

input: Next: Cc1cccc(C(=O)Nn2c(CC3CCCCC3)nc3c(-c4ccc(Cl)cc4)n[nH]c3c2=O)c1
output: 89

input: Next: CCCCc1nc2c(-c3ccc(Cl)cc3)n[nH]c2c(=O)n1NC(=O)c1ccccc1
output: 89

input: Next: CCCCCc1nc2c(-c3ccc(Cl)cc3)n[nH]c2c(=O)n1NC(=O)c1cccc(C)c1
output: 94

---

# target: Aurora kinase A (Homo sapiens)
# Sequence (whole entry): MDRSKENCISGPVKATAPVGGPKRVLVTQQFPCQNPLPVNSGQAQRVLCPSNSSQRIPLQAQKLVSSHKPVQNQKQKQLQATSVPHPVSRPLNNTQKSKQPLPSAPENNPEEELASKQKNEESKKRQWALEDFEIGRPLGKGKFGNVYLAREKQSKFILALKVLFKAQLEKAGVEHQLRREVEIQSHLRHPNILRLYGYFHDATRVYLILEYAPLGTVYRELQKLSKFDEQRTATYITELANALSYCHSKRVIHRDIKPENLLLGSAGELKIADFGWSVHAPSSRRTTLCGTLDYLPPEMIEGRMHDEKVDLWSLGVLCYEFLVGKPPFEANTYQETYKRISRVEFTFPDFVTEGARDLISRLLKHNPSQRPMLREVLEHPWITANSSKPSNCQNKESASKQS
# assay-remarks: Inhibition of human Aurora A assessed as remaining enzyme activity at 10 uM; values are per cent of control
readout-type: residual activity (%)
Numeric answer only, unit % assumed.

Take a look at these entries with their results.
CCCCCc1nc2c(-c3ccc(Cl)cc3)n[nH]c2c(=O)n1NC(=O)c1cccc(C)c1 7
O=C(Cc1ccccc1)Nn1c(CC2CCCCC2)nc2c(-c3ccc(Cl)cc3)n[nH]c2c1=O 26
CCCCCc1nc2c(-c3ccc(Cl)cc3)n[nH]c2c(=O)n1NC(=O)c1ccccc1 9
CCCCc1nc2c(-c3ccc(Cl)cc3)n[nH]c2c(=O)n1NC(=O)c1ccccc1 16

Now consider the entry below.
input: Name the reported residual activity value associated with the compound Cc1cccc(C(=O)Nn2c(CC3CCCCC3)nc3c(-c4ccc(Cl)cc4)n[nH]c3c2=O)c1
output: 18

Values were extracted from ChEMBL document CHEMBL1154962.
